All values here come from ChEMBL document CHEMBL2074406.

targetSystem: Broad substrate specificity ATP-binding cassette transporter ABCG2 (Homo sapiens, UniProt Q9UNQ0)
Sequence (Q9UNQ0 whole entry): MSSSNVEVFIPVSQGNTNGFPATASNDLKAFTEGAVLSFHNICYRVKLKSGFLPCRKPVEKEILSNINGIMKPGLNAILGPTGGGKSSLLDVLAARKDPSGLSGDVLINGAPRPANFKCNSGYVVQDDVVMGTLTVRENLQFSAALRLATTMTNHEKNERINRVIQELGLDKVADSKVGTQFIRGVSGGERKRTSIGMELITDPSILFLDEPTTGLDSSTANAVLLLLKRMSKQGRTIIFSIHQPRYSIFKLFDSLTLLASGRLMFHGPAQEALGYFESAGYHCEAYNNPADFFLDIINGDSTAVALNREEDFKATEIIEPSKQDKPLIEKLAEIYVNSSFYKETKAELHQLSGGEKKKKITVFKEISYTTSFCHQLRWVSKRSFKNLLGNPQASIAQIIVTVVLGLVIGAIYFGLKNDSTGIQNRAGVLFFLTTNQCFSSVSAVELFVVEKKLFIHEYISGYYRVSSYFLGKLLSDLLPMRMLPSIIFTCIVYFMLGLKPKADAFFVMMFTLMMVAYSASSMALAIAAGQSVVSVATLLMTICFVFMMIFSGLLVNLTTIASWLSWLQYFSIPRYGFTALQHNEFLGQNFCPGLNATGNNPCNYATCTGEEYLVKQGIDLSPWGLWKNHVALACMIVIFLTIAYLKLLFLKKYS
assayComment: TP_TRANSPORTER: drug resistance in BCRP-expressing PA317 cells
Assay type: functional, cell-based
conditionSet: mouse
measurementLabel: Activity

Quick note, Activity for C[C@]12CC[C@@H]3c4ccc(O)cc4CC[C@H]3[C@@H]1CCC2=O [ESTRONE] landed at inhibitor []

Quick note, Activity for O=C1c2c(O)ccc(O)c2C(=O)c2c(NCCNCCO)ccc(NCCNCCO)c21 [MITOXANTRONE] landed at substrate []

Quick note, Activity for CCc1c2c(nc3ccc(O)cc13)-c1cc3c(c(=O)n1C2)COC(=O)[C@]3(O)CC [7-ETHYL-10-HYDROXYCAMPTOTHECIN] landed at substrate []

Quick note, Activity for COc1ccc2c3c([nH]c2c1)[C@H](C=C(C)C)N1C(=O)[C@@H]2CCCN2C(=O)[C@@H]1C3 [FUMITREMORGIN] landed at inhibitor []
